Just for reference, patent US20180155413A1 is where these values come from.

Quick list: Neutralization (IC50) per entry.
molecular target: HA of B/Florida/4/2006 (yamagata) (influenza B virus); assay: cell-based or functional assay
The figure you give is taken to be in nM; do not add the unit.

[[record]]
binder = "FBC39 IgG (antibody, V domains shown) VH: EVQLVVSGGGLVKPGGSLRLSCAASGLSFLNAWMSWVRQAPGKGLEWVGRIKSNTDGGTTDYAAPVKGRFSISRDDSKNMLFLHMSSLRTEDTAVYYCATDGPYSDDFRSGYAARYRYFGMDVWGQGTTVTVSS VL: DIQMTQSPSSVSASVGDRVTITCRASQDISTWLAWYQQKPGKAPKLLIYAASSLQSGVPSRFSGSGSGTDFTLTISSLQPEDFATYFCQQANSFPPTFGQGTKLEIK"
assay_readout = "Neutralization (IC50)"
units_label = "nM"
recorded_result = 0.4


Could you now consider this next binder?
Lab book: Neutralization (IC50) of FBD94 IgG (antibody, V domains shown) VH: EVQLVESGGGLVQPGRSLRLSCAVSGFIFEDYAINWVRQAPGKGLEWVSIISWDSGRIGYADSVRGRFTISRDNAKNSSFLQMNSLRPEDTAVYYCVKDMLAYYYDGSGIRYNLYGMDVWGQGTTVTVSS VL: EIVLTQSPATLSLSPGERATLSCRASRSITTFLAWYQQKPGQAPRLLIYDASNRATGVPARFSGSGSGTDFTLTINSLEPDDFAIYYCQQRDHWPPIFGQGTRLEIK noted as 0.1
